These entries and their values trace back to PubChem BioAssay.

# study-system: Calmodulin-1 (Homo sapiens) (UniProt P0DP23)
# test-description: calcium-bound CALM1 binders on microarrays, profiling panel, artefact control for SMM control-protein annotation, biochemical, small-molecule microarray, Cy5-labelled CALM1, plus calcium (AID 1112);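 also: score merges spot fluorescence with signal to noise from triplicate slides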
# recorded-conditions: Cy5-CALM1 binding fluorescence, higher = more signal
measurement-type: composite z-score

Entry COC(=O)[C@@]1(Cc2ccccc2)[C@H]2c3cc(C(=O)N4CCCC4)n(CC4CC4)c3C[C@H]2CN1C(=O)c1ccccc1 — recorded composite z-score = 0.697

What the record says about COCCn1c(C(=O)N2CCCC2)cc2c1C[C@H]1CN(C(=O)c3ccccc3)[C@@](Cc3ccc(F)cc3)(C(=O)OC)[C@@H]21 : composite z-score is 0.954

Lab note: [N-]=[N+]=Nc1ccccc1C[C@@]1(C(=O)NCCN2CCOCC2)N=C(c2ccc(OCCCO)cc2)O[C@@H]1c1ccccc1 gave composite z-score of -0.3

New cases:
The reported composite z-score of the compound COCCOC(=O)N1C(=O)[C@@]2(c3cc(C#Cc4ccc(OC)cc4)ccc31)[C@H](c1ccccc1OCCO)N1[C@H](c3ccccc3)[C@H](c3ccccc3)OC(=O)[C@H]1[C@@H]2C(=O)N1CCN(c2ncccn2)CC1 was 0.805

Value of composite z-score reported for the compound COc1ccc(C(=O)Nc2ccc(CN3C(=O)[C@@]4(O[C@@H](CCO)[C@H]([Si](C)(C)c5ccc(OC)cc5)[C@H]4C)c4ccccc43)cc2)cc1 is -0.608

Reported composite z-score of Cc1ccc(C(C)CC(O)C2C=CC3C(=O)N(C)C(=O)C3N2NC(=O)OC(C)(C)C)o1 (stereo not given) : 0.0152

Entry O=C1O[C@H](c2ccccc2)[C@H](c2ccccc2)N2[C@H]1[C@@H](C(=O)O)[C@]1(C(=O)Nc3ccc(C#CCCO)cc31)[C@H]2c1ccc(O)cc1 ; composite z-score = 0.869

====

# test-description: E. coli growth modulation, two-sided OD650, primary screen, E. coli filamentation project, strain DRC41, 24 h (AID 1093);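 also: MC1000 strain lacking acrAB efflux and sulA so SOS filamentation is blocked; test concentration not given here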
# recorded-conditions: OD650, 24 h, higher = more signal, called active from +8 up or from −8 down
measurement-type: z-score
The answer should be a number; do not append a unit.

Short answer for COC(=O)[C@@]1(Cc2ccc(F)cc2)[C@H]2c3cc(C(=O)N(C)C)n(Cc4ccc(S(C)(=O)=O)cc4)c3C[C@H]2CN1C(=O)c1ccccc1 : z-score was 0.321

Further cases:
Lookup result for C[C@]1(C(=O)NC2CC2)c2ccccc2C(=O)N(Cc2cc(C(F)(F)F)cc(C(F)(F)F)c2)[C@H]1c1ccc(CO)cc1 ; measured z-score: 1.08

# z-score of O=C1c2ccccc2[C@@]2(Cc3ccccc3N(CCN3CCOCC3)C2=O)[C@H](c2ccc(CO)cc2)N1Cc1ccccc1 = 0.959

# z-score of CCN(CC)c1ccc(N2CC=CC34O[C@@H]5/C=C\CCCOC(=O)C5[C@H]3C(=O)N(CCO)[C@@H]4C2=O)cc1 (some centres undefined) = 0.557

Just so you know, measured z-score for [N-]=[N+]=Nc1ccccc1C[C@]1(C(N)=O)N=C(c2ccc(OCCCO)cc2)O[C@H]1c1ccccc1 came out at 0.104

====

# study-system: Concanavalin-A (Canavalia ensiformis)
# test-description: ConA small-molecule binders, primary screen, artefact control for SMM control protein annotation, biochemical, small-molecule microarray, Alexa647 label, 635 nm (AID 1127);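 also: z combines 667 nm emission intensity with signal-to-noise across three replicate slides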
# recorded-conditions: ConA-A647 binding fluorescence, higher = more signal
Class field: derived from composite z-score; ranges low bracket = under 0.5, middle bracket = from 0.5 up to 0.9, high bracket = 0.9 and over

**Query** Hi there! Could you help me figure out the category for C=C/C=C/[C@H]1C(=C)CN([C@@H](Cc2ccccc2)C(=O)OC)[C@@H]1[C@H](O)Cc1ccccc1 please?
**Result** low bracket

**Query** Into which category would you place COCCCNC(=O)C1N=C(c2ccc(OCCCO)cc2)N(c2ccccc2)O1 (centres undefined) ?
**Result** high bracket

---
**Query** Which composite z-score band matches C#CCN(CC1=CCCCC1)[C@H](c1ccccc1Br)[C@@H](O)Cc1ccccc1 ?
**Result** low bracket

**Query** Where would CC(C)N1C(=O)[C@@]2(Cc3ccccc31)c1ccccc1C(=O)N(C1CCCCC1)[C@H]2c1ccc(CO)cc1 land among the classes by reported composite z-score?
**Result** middle bracket

**Query** Classify this compound: O=C1NC(=O)C2C1C=CC(C(O)C(c1ccccc1)c1ccccc1)N2Nc1ccc(Cl)cc1Cl (centres undefined)
**Result** middle bracket

**Query** Just checking, what class would you give COCCCN1C(=O)[C@@]2(c3ccc([N+](=O)[O-])cc3)CC(=O)N(C3CCCCC3)[C@@H]2c2ccc(CO)cc21 here?
**Result** middle bracket

**Query** Textbook exercise: identify the category of the compound given here, CCOC(=O)C1=CCC(c2ccc(C)cc2)N(S(=O)(=O)c2ccc(C)cc2)C1 (centres undefined) , according to its measured value.
**Result** high bracket
